measured_target: IRAK4 (Homo sapiens, UniProt Q9NWZ3)
Sequence (Q9NWZ3 1-460): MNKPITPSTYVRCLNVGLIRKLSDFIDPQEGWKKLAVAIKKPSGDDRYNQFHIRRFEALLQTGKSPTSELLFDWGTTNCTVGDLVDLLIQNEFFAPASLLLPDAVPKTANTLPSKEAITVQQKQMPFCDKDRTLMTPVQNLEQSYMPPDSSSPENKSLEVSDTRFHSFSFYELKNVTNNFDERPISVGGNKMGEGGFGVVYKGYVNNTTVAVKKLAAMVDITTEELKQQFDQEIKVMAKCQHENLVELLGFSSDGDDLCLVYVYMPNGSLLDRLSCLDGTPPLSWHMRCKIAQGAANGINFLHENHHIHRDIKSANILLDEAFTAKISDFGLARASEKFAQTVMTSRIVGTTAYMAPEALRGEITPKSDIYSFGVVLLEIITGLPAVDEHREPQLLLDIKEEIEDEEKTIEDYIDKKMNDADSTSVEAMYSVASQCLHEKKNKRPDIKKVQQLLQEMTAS
assay_summary: 2-hour 10 μM ATP Biochemical Assay (MesoScale Detection format; IRAK4 phosphorylation of biotin labeled IRAK1 activation loop peptide)
measurement_parameters: 0.1 nM IRAK4
measured_parameter: IC50 (nM)

| compound | IC50 [nM] |
| --- | --- |
| COc1cc2nc(C3C4COCC43)cn2cc1C(=O)Nc1cccc(C(F)(F)F)n1 (stereo not drawn) | 8 |

A = COc1cccc(NC(=O)c2cn3cc(C4CC5CCC(C4)O5)nc3cc2OC)n1 (stereo not drawn)
B = COc1cccc(NC(=O)c2cn3cc(C4CC5(CCOC5)C4)nc3cc2OC)n1 (stereo not drawn)
Query: I need your help: which of the pair A , B has higher IC50? Please indicate the selected item by its label.
Response: B

Just for reference, patent US20230087118A1 is where these values come from.
